Can you tell me Peak area of product (4,4-dithio-bis-acid nitrobenzoic), mean for the items I'm about to list?
# TARGET UNDER TEST: Acetylcholinesterase human (AChE) (Homo sapiens)
# Construct: purchased Sigma-Aldrich (Poznań, Poland)
# ASSAY INFO: AChE inhibition kinetics, Ellman's method combined with capillary electrophoresis
# Format: biochemical
# CONDITION LABEL: inhibitor 0.08 mM; acetylthiocholine 46.00 mM
Answers are plain numbers.

Here is how some compounds turned out for Peak area of product (4,4-dithio-bis-acid nitrobenzoic), mean.
{"COMPOUND": "CC(C)NCC(O)CN1C(=O)C2C(C1=O)C1(C)C(=O)C2(C)C(c2ccccc2)=C1c1ccccc1 (stereo not shown)", "TEST RESULT": 199716}
{"COMPOUND": "CCC12C(=O)C(CC)(C(c3ccccc3)=C1c1ccccc1)C1C(=O)N(CC(O)CNC(C)C)C(=O)C12 (stereo not shown)", "TEST RESULT": 251643}
{"COMPOUND": "CCC12C(=O)C(CC)(C(c3ccccc3)=C1c1ccccc1)C1C(=O)N(CC(O)CN(C)C)C(=O)C12 (stereo not shown)", "TEST RESULT": 283597}

Note: attention shifts to another entry.
Prompt line: Name the recorded Peak area of product (4,4-dithio-bis-acid nitrobenzoic), mean for CN(C)CC(O)CN1C(=O)C2C(C1=O)C1(C)C(=O)C2(C)C(c2ccccc2)=C1c1ccccc1 (stereo not shown) .
Response line: 231671

###

# TARGET UNDER TEST: Acetylcholinesterase human (AChE) (Homo sapiens)
# Construct: purchased Sigma-Aldrich (Poznań, Poland)
# ASSAY INFO: AChE inhibition kinetics, Ellman's method combined with capillary electrophoresis
# Type: biochemical
# CONDITION LABEL: inhibitor 0.04 mM
READOUT KIND: Vmax
Don't forget the unit after the number, please.

{"COMPOUND": "CCC12C(=O)C(CC)(C(c3ccccc3)=C1c1ccccc1)C1C(=O)N(CC(O)CN(C)C)C(=O)C12 (stereo not shown)", "Vmax": "0.65 ± 0.01 mM/min"}
{"COMPOUND": "CCC12C(=O)C(CC)(C(c3ccccc3)=C1c1ccccc1)C1C(=O)N(CC(O)CNC(C)C)C(=O)C12 (stereo not shown)", "Vmax": "0.64 ± 0.01 mM/min"}
{"COMPOUND": "CN(C)CC(O)CN1C(=O)C2C(C1=O)C1(C)C(=O)C2(C)C(c2ccccc2)=C1c1ccccc1 (stereo not shown)", "Vmax": "0.64 ± 0.03 mM/min"}

Prompt line: Name the recorded Vmax for CC(C)NCC(O)CN1C(=O)C2C(C1=O)C1(C)C(=O)C2(C)C(c2ccccc2)=C1c1ccccc1 (stereo not shown) .
Response line: 0.64 ± 0.03 mM/min

###

Can you tell me Peak area of product (4,4-dithio-bis-acid nitrobenzoic), mean for the items I'm about to list?
# TARGET UNDER TEST: Acetylcholinesterase human (AChE) (Homo sapiens)
# Construct: purchased Sigma-Aldrich (Poznań, Poland)
# ASSAY INFO: AChE inhibition kinetics, Ellman's method combined with capillary electrophoresis
# Assay type: biochemical
# CONDITION LABEL: inhibitor 0.08 mM; acetylthiocholine 11.50 mM
# Description: In this work, we used the combined Ellman’s method with the capillary electrophoresis method developed by us for the determination of 4,4-dithio-bis-acid nitrobenzoic (DBAN) (main enzyme reaction product) in the presence of acetylthiocholine (ACth), 5-thio-2-nitrobenzoic acid (NTB), 5,5′-dithio-bis-2-nitrobenzoic acid (DTNB), acetylcholinesterase (AChE) and inhibitors (I), (II), (III) and (IV) of acetylcholinesterase. […]
Numbers only.

{"MOLECULE": "CC(C)NCC(O)CN1C(=O)C2C(C1=O)C1(C)C(=O)C2(C)C(c2ccccc2)=C1c1ccccc1 (stereo not shown)", "TEST RESULT": 183545}
{"MOLECULE": "CCC12C(=O)C(CC)(C(c3ccccc3)=C1c1ccccc1)C1C(=O)N(CC(O)CNC(C)C)C(=O)C12 (stereo not shown)", "TEST RESULT": 231267}
{"MOLECULE": "CCC12C(=O)C(CC)(C(c3ccccc3)=C1c1ccccc1)C1C(=O)N(CC(O)CN(C)C)C(=O)C12 (stereo not shown)", "TEST RESULT": 260635}

Note: attention shifts to another entry.
Prompt line: Name the recorded Peak area of product (4,4-dithio-bis-acid nitrobenzoic), mean for CN(C)CC(O)CN1C(=O)C2C(C1=O)C1(C)C(=O)C2(C)C(c2ccccc2)=C1c1ccccc1 (stereo not shown) .
Response line: 212913

###

# TARGET UNDER TEST: Acetylcholinesterase human (AChE) (Homo sapiens)
# Construct: purchased Sigma-Aldrich (Poznań, Poland)
# ASSAY INFO: AChE inhibition kinetics, Ellman's method combined with capillary electrophoresis
# Assay type: biochemical
# CONDITION LABEL: inhibitor 0.08 mM; acetylthiocholine 0.36 mM
# Description: In this work, we used the combined Ellman’s method with the capillary electrophoresis method developed by us for the determination of 4,4-dithio-bis-acid nitrobenzoic (DBAN) (main enzyme reaction product) in the presence of acetylthiocholine (ACth), 5-thio-2-nitrobenzoic acid (NTB), 5,5′-dithio-bis-2-nitrobenzoic acid (DTNB), acetylcholinesterase (AChE) and inhibitors (I), (II), (III) and (IV) of acetylcholinesterase. […]
READOUT KIND: V0 (reaction speed), mean (mM/min)
Give bare numbers, in mM/min.

Here is how some molecules turned out for V0 (reaction speed), mean.
{"MOLECULE": "CC(C)NCC(O)CN1C(=O)C2C(C1=O)C1(C)C(=O)C2(C)C(c2ccccc2)=C1c1ccccc1 (stereo not shown) [Compound (III)]", "TARGET UNDER TEST": "Acetylcholinesterase human (AChE) (Homo sapiens)", "TEST RESULT": 0.10}
{"MOLECULE": "CCC12C(=O)C(CC)(C(c3ccccc3)=C1c1ccccc1)C1C(=O)N(CC(O)CNC(C)C)C(=O)C12 (stereo not shown) [Compound (I)]", "TARGET UNDER TEST": "Acetylcholinesterase human (AChE) (Homo sapiens)", "TEST RESULT": 0.11}
{"MOLECULE": "CCC12C(=O)C(CC)(C(c3ccccc3)=C1c1ccccc1)C1C(=O)N(CC(O)CN(C)C)C(=O)C12 (stereo not shown) [Compound (II)]", "TARGET UNDER TEST": "Acetylcholinesterase human (AChE) (Homo sapiens)", "TEST RESULT": 0.11}

Note: attention shifts to another entry.
Prompt line: Name the recorded V0 (reaction speed), mean for CN(C)CC(O)CN1C(=O)C2C(C1=O)C1(C)C(=O)C2(C)C(c2ccccc2)=C1c1ccccc1 (stereo not shown) [Compound (IV)] .
Response line: 0.10

###

Can you tell me Peak area of product (4,4-dithio-bis-acid nitrobenzoic), mean for the items I'm about to list?
# TARGET UNDER TEST: Acetylcholinesterase human (AChE) (Homo sapiens, UniProt P22303)
# Construct: purchased Sigma-Aldrich (Poznań, Poland)
# Sequence (P22303 32-614): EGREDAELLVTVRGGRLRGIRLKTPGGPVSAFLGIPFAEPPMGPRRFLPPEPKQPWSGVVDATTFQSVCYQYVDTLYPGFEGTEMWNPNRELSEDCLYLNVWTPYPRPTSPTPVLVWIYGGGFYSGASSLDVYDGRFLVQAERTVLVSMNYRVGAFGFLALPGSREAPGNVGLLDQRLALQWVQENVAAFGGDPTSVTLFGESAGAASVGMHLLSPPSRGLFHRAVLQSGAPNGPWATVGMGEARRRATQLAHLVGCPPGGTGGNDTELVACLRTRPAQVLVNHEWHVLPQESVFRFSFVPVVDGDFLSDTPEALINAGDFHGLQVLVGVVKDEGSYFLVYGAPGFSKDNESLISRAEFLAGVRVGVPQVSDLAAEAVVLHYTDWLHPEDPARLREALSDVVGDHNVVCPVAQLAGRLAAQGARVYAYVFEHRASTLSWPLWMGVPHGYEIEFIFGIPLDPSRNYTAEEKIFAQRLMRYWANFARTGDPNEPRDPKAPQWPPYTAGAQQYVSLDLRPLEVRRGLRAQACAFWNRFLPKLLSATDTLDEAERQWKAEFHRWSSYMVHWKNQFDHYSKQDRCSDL
# ASSAY INFO: AChE inhibition kinetics, Ellman's method combined with capillary electrophoresis
# Type: biochemical
# CONDITION LABEL: inhibitor 0.08 mM; acetylthiocholine 34.50 mM

Here is how some compounds turned out for Peak area of product (4,4-dithio-bis-acid nitrobenzoic), mean.
{"COMPOUND": "CCC12C(=O)C(CC)(C(c3ccccc3)=C1c1ccccc1)C1C(=O)N(CC(O)CN(C)C)C(=O)C12 (stereo not shown) [Compound (II)]", "TEST RESULT": 282281}
{"COMPOUND": "CCC12C(=O)C(CC)(C(c3ccccc3)=C1c1ccccc1)C1C(=O)N(CC(O)CNC(C)C)C(=O)C12 (stereo not shown) [Compound (I)]", "TEST RESULT": 250475}
{"COMPOUND": "CN(C)CC(O)CN1C(=O)C2C(C1=O)C1(C)C(=O)C2(C)C(c2ccccc2)=C1c1ccccc1 (stereo not shown) [Compound (IV)]", "TEST RESULT": 230596}

Note: attention shifts to another entry.
Prompt line: Name the recorded Peak area of product (4,4-dithio-bis-acid nitrobenzoic), mean for CC(C)NCC(O)CN1C(=O)C2C(C1=O)C1(C)C(=O)C2(C)C(c2ccccc2)=C1c1ccccc1 (stereo not shown) [Compound (III)] .
Response line: 198790

###

# TARGET UNDER TEST: Acetylcholinesterase human (AChE) (Homo sapiens)
# Construct: purchased Sigma-Aldrich (Poznań, Poland)
# ASSAY INFO: AChE inhibition kinetics, Ellman's method combined with capillary electrophoresis
# Assay type: biochemical
# CONDITION LABEL: inhibitor 0.08 mM
Can you tell me Vmax for the items I'm about to list?
Numbers only, in mM/min.

{"COMPOUND": "CCC12C(=O)C(CC)(C(c3ccccc3)=C1c1ccccc1)C1C(=O)N(CC(O)CNC(C)C)C(=O)C12 (stereo not shown)", "TEST RESULT": 0.65}

Your task in this section: give Vmax for each listed record.
1. CN(C)CC(O)CN1C(=O)C2C(C1=O)C1(C)C(=O)C2(C)C(c2ccccc2)=C1c1ccccc1 (stereo not shown)
2. CCC12C(=O)C(CC)(C(c3ccccc3)=C1c1ccccc1)C1C(=O)N(CC(O)CN(C)C)C(=O)C12 (stereo not shown)
3. CC(C)NCC(O)CN1C(=O)C2C(C1=O)C1(C)C(=O)C2(C)C(c2ccccc2)=C1c1ccccc1 (stereo not shown)

Response line:
0.64
0.65
0.63
